- system-under-test: HCV polymerase (Hepatitis C virus genotype 1b, UniProt P26663)
- Construct: 2.5 pmoles (0.15 μg) HCV polymerase protein in a final volume of 75 μL
- Sequence (P26663 2420-3010): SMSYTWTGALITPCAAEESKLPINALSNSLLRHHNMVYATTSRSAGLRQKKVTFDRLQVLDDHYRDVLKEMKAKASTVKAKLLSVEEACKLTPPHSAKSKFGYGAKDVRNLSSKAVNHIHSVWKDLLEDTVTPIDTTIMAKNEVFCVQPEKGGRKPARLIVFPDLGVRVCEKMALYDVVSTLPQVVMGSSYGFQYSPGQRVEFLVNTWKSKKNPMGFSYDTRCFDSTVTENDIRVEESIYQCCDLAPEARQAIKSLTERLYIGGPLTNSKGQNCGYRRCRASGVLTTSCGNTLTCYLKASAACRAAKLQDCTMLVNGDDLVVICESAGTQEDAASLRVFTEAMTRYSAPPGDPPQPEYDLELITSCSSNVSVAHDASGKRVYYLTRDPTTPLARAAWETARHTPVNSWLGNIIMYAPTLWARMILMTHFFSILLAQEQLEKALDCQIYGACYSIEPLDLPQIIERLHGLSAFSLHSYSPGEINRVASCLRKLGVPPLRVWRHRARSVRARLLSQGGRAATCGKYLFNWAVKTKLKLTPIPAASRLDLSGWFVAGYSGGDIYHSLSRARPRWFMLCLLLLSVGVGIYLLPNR
- assay-name: HCV polymerase primer/template-directed transcription assay (32P-GTP incorporation, filter binding)
- Type: biochemical
- measurement-parameters: recombinant HCV polymerase; 30 minutes at 30° C.; concentration giving 50% inhibition of polymerase-directed transcription; read-out: IC50
Overview of recorded IC50 for various compounds
Report the figure in nM without appending any unit label.

Known IC50 results, listed for orientation:
O=C1CC(=O)OC(CCC2=CCCCC2)(C2CCCC2)C1 (stereo not shown) :: 63000
CC(C)(C#N)c1c(F)cc(CCC2(C3CCCC3)CC(O)=C(Cc3nc4ncccn4n3)C(=O)O2)cc1F (stereo not shown) :: 11
CCc1cc(O)cc(CCC2(C3CCCC3)CC(O)=C(Cc3nc4nc(C)cc(C)n4n3)C(=O)O2)c1 (stereo not shown) :: 40

Determine from records and report IC50 for COc1cc(OC)c(CCC2(C3CCCC3)CC(O)=C(Sc3nc(O)cc(C(F)(F)F)n3)C(=O)O2)cc1Cl (stereo not shown)
99

Give the measured IC50 for Cc1cc(C)n2nc(CC3=C(O)CC(CCc4ccc(C5(C#N)CC5)c(Cl)c4)(C4CCCC4)OC3=O)nc2n1 (racemic) [A(201)]
12

Origin of measurements: patent US7473790B2
